Test: PK in mice after iv injection of liposomal NA112: brain
Assay type: in vivo
Details: mouse, iv, 10 mg/kg, mice iv 10 mg/kg liposomes, 0.0167 hr, read-out: Brain concentration Mean
readoutKind: concentration at 1 min (ng/mL)
// note: answer is a bare numeric in ng/mL

Which concentration at 1 min value belongs to CCC(NC(=O)[C@H](CC(C)C)NC(=O)NCc1ccccc1)C(=O)C(=O)NCc1cc(OC)cc(OC)c1 (mixture of isomers) [NA112] ?
412

###

Experiment: PK in mice after iv injection of liposomal NA112: brain
Format: in vivo
Settings: mouse, iv, 10 mg/kg, mice iv 10 mg/kg liposomes, 0.5 hr, read-out: Brain concentration A1
readoutKind: concentration at 0.5 hr (µg/mL)
// note: answer is a bare numeric in µg/mL

Which concentration at 0.5 hr value belongs to CCC(NC(=O)[C@H](CC(C)C)NC(=O)NCc1ccccc1)C(=O)C(=O)NCc1cc(OC)cc(OC)c1 (mixture of isomers) ?
0.0606

###

Test: PK in mice after iv injection of liposomal NA112: plasma
Type: in vivo
Settings: mouse, iv, 10 mg/kg, mice iv 10 mg/kg liposomes, 1 hr, read-out: Plasma concentration A2
readoutKind: concentration at 1 hr (ng/mL)
// note: answer is a bare numeric in ng/mL

Which concentration at 1 hr value belongs to CCC(NC(=O)[C@H](CC(C)C)NC(=O)NCc1ccccc1)C(=O)C(=O)NCc1cc(OC)cc(OC)c1 (mixture of isomers) ?
390

###

Assay: PK in mice after iv injection of liposomal NA112: brain
Assay type: in vivo
Conditions: mouse, iv, 10 mg/kg, mice iv 10 mg/kg liposomes, 4 hr, read-out: Brain concentration A2
Description: NA112 was prepared in liposomes at a concentration of 1.5 mg/ml. Mice were injected in the tail vein with 200 μl of NA112 in liposomes (corresponding to a dose of 10 mg/kg) and were sacrificed at the following time-points: 1, 5, 15, 30 min, 1, 2, 4, 8, 16 and 24 h. Blood was collected and plasma rapidly prepared by centrifugation. Brains were also collected. NA112 in plasma and in brain homogenates was assayed with LC/Ms and the sensitivity of the assay was 1 ng/ml. […]
readoutKind: concentration at 4 h (ng/mL)
// note: answer is a bare numeric in ng/mL

Which concentration at 4 h value belongs to CCC(NC(=O)[C@H](CC(C)C)NC(=O)NCc1ccccc1)C(=O)C(=O)NCc1cc(OC)cc(OC)c1 (mixture of isomers) [NA112] ?
21.3

###

Test: Stability in mouse plasma at 37° C. (residual inhibition of purified human calpain-2)
Type: in vitro ADME
Conditions: mouse, mouse plasma, B-cyclodextrin formulation, 0.2 mM, read-out: Estimated half-life in mouse plasma (converted)
readoutKind: half-life at 0.2 mM (h)
// note: answer is a bare numeric in h

Which half-life at 0.2 mM value belongs to CCC(NC(=O)[C@H](CC(C)C)NC(=O)NCc1ccccc1)C(=O)C(=O)NCc1cc(OC)cc(OC)c1 (mixture of isomers) [NA112] ?
17

###

Assay: Stability in mouse liver homogenate (residual inhibition of purified human calpain-2)
Format: in vitro ADME
Details: B-cyclodextrin formulation, read-out: Estimated half-life in mouse liver homogenate (converted)
readoutKind: half-life (h)
// note: answer is a bare numeric in h

Which half-life value belongs to CCC(NC(=O)[C@H](CC(C)C)NC(=O)NCc1ccccc1)C(=O)C(=O)NCc1cc(OC)cc(OC)c1 (mixture of isomers) ?
15

Values compiled from patent US12606520B2.
